The measurements presented in this section are drawn from ChEMBL document CHEMBL2311516.

Quick reference for IC50 among some compounds
biological target: Glutamate receptor 1 (Rattus norvegicus); test: Inhibition of rat GluA1 receptor flip form expressed in Xenopus laevis oocyte assessed as glutamate-induced current at holding potentials from -80 to -40 mV by two electrode voltage clamp analysis
The answer is to be given in nM; state only the numeric part.

Request: What reported IC50 corresponds to NC(=O)C[C@H](NC(=O)Cc1ccc(O)cc1O)C(=O)NCCCCCCCCNCCCCNC(=O)[C@@H](N)CCCN=C(N)N on Glutamate receptor 1 (Rattus norvegicus)?
Result: 83

Request: What do you have for NC(=O)C[C@H](NC(=O)Cc1ccc(O)cc1O)C(=O)NCCCCCCCCCNCCCNC(=O)[C@@H](N)CCCN=C(N)N ?
Result: 454

Request: What do you have for N=C(N)NCCC[C@H](N)C(=O)NCCCCCCNCCCCCCNC(=O)[C@H](CC(N)=O)NC(=O)Cc1ccc(O)cc1O ?
Result: 46

Request: What do you have for N=C(N)NCCC[C@H](N)C(=O)NCCCCCCCCCNCCCNC(=O)[C@H](CC(N)=O)NC(=O)Cc1ccc(O)cc1O ?
Result: 171

----------
species on record: Rattus norvegicus; test: Selectivity ratio of IC50 for rat GluA1 receptor flip form to IC50 for rat GluN1/2A receptor
Quick reference for Ratio IC50 among some compounds
# respond with the number and nothing more

N=C(N)NCC[C@@H](N)C(=O)NCCCCCNCCCCCCCNC(=O)[C@@H](NC(=O)Cc1ccc(O)cc1O)c1c[nH]c2ccccc12
3.4

Request: Name the reported Ratio IC50 value associated with the compound N=C(N)NCCC[C@H](N)C(=O)NCCCCCCCNCCCCCNC(=O)[C@H](CC(N)=O)NC(=O)Cc1ccc(O)cc1O
Result: 0.09

Request: What do you have for N=C(N)NCCC[C@H](N)C(=O)NCCCNCCCNCCCCCNC(=O)[C@H](CC(N)=O)NC(=O)Cc1ccc(O)cc1O ?
Result: 8

----------
species: Rattus norvegicus; experiment: Selectivity ratio of IC50 for rat GluA1 receptor flip form to IC50 for rat GluN1/2A receptor
// 0 strictly below 7 in Ratio IC50; 1 otherwise

Answered examples (3):
N=C(N)NCCC[C@H](N)C(=O)NCCCCCCNCCCCCCNC(=O)[C@H](CC(N)=O)NC(=O)Cc1ccc(O)cc1O
0
N=C(N)NCC[C@@H](N)C(=O)NCCCCCNCCCCCCCNC(=O)[C@H](CC(=O)O)NC(=O)Cc1ccc(O)cc1O
0
N=C(N)NCCC[C@H](N)C(=O)NCCCCNCCCCCCCCNC(=O)[C@H](CC(N)=O)NC(=O)Cc1ccc(O)cc1O
1

Request: Exam item: decide whether the reported Ratio IC50 for N=C(N)NCCC[C@H](N)C(=O)NCCCCCCCCCNCCCNC(=O)[C@H](CC(N)=O)NC(=O)Cc1ccc(O)cc1O is at least 7.
Result: 0

Request: What do you have for N=C(N)NCCC[C@H](N)C(=O)NCCCNCCCCCCCCCNC(=O)[C@H](CC(N)=O)NC(=O)Cc1ccc(O)cc1O ?
Result: 1

Request: What do you have for N=C(N)NCCC[C@H](N)C(=O)NCCCCCCCCNCCCCNC(=O)[C@H](CC(N)=O)NC(=O)Cc1ccc(O)cc1O ?
Result: 0

----------
Quick reference for Ratio IC50 among some compounds
species: Rattus norvegicus; experiment: Selectivity ratio of IC50 for rat GluN1/2A receptor to IC50 for rat GluA1 receptor flip form
# respond with the number and nothing more

Previously resolved entries follow.
N=C(N)NCCC[C@H](N)C(=O)NCCCCCCCNCCCCCNC(=O)[C@H](CC(N)=O)NC(=O)Cc1ccc(O)cc1O
11
N=C(N)NCC[C@@H](N)C(=O)NCCCCCNCCCCCCCNC(=O)[C@H](CC(=O)O)NC(=O)Cc1ccc(O)cc1O
13

Turning now to a further record.
Request: Name the reported Ratio IC50 value associated with the compound N=C(N)NCCC[C@H](N)C(=O)NCCCCCCCCNCCCCNC(=O)[C@H](CC(N)=O)NC(=O)Cc1ccc(O)cc1O
Result: 12

----------
molecular target: Glutamate NMDA receptor; Grin1/Grin2a (Rattus norvegicus, UniProt P35439+Q00959); test: Inhibition of rat GluN1/2A receptor expressed in Xenopus laevis oocyte assessed as glutamate and glycine-induced current at holding potentials from -80 to -40 mV by two electrode voltage clamp analysis
Sequence (Q00959 whole entry, other chains not shown): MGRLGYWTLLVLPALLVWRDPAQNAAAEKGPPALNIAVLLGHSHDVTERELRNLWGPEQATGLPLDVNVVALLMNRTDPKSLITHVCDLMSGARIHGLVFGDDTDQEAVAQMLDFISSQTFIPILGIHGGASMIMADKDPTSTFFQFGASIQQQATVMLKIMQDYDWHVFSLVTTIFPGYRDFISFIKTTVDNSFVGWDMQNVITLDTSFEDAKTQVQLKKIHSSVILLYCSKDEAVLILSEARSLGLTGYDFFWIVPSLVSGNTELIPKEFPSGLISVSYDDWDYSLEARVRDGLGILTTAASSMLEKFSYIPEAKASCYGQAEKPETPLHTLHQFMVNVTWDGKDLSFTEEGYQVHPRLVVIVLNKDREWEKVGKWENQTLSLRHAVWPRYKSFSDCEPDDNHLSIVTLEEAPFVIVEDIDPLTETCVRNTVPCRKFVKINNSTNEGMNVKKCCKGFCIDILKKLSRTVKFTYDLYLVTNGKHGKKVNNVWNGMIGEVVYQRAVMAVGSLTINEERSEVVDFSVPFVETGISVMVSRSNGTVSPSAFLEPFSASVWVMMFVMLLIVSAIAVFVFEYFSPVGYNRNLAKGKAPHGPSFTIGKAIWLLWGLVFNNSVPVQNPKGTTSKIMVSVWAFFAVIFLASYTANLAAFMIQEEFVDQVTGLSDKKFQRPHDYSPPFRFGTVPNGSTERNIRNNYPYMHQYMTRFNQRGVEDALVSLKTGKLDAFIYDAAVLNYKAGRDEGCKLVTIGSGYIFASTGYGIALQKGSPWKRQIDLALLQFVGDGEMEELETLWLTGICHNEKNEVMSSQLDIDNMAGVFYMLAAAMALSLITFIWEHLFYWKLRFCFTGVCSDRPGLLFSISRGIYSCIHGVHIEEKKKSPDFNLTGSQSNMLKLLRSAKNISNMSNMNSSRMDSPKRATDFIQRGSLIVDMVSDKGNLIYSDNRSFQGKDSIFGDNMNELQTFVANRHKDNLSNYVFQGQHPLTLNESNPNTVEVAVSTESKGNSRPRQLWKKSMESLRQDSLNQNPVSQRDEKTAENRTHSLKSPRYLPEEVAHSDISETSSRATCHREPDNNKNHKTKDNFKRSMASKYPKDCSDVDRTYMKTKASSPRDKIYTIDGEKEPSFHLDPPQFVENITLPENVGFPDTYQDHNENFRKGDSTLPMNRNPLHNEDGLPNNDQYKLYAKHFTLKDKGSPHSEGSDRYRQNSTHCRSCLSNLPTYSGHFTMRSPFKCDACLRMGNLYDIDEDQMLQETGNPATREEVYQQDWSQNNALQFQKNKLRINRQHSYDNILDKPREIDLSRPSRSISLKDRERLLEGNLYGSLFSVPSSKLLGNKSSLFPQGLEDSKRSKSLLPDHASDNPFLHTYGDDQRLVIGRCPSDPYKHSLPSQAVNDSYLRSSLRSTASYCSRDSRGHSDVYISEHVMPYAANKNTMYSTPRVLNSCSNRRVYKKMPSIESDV
Quick reference for pIC50 among some molecules
Kindly note that pIC50 refers to -log10 of the concentration in mol/L and answer with the value alone.

Previously resolved entries follow.
NC(=O)C[C@H](NC(=O)Cc1ccc(O)cc1O)C(=O)NCCCCCCCCCNCCCNC(=O)[C@@H](N)CCCN=C(N)N
7.85
NC(=O)C[C@H](NC(=O)Cc1ccc(O)cc1O)C(=O)NCCCCCCCNCCCCCNC(=O)[C@@H](N)CCCN=C(N)N
7.77
NC(=O)C[C@H](NC(=O)Cc1ccc(O)cc1O)C(=O)NCCCCCCCCNCCCCNC(=O)[C@@H](N)CCCN=C(N)N
8.10
N=C(N)NCCC[C@H](N)C(=O)NCCCCCCCNCCCCCNC(=O)[C@H](CC(N)=O)NC(=O)Cc1ccc(O)cc1O
6.07
N=C(N)NCCC[C@H](N)C(=O)NCCCCCCNCCCCCCNC(=O)[C@H](CC(N)=O)NC(=O)Cc1ccc(O)cc1O
7.68
N=C(N)NCCC[C@H](N)C(=O)NCCCNCCCNCCCCCNC(=O)[C@H](CC(N)=O)NC(=O)Cc1ccc(O)cc1O
8.00
N=C(N)NCCC[C@H](N)C(=O)NCCCCCCCCNCCCCNC(=O)[C@H](CC(N)=O)NC(=O)Cc1ccc(O)cc1O
6.64

Turning now to a further record.
Request: Name the reported pIC50 value associated with the molecule N=C(N)NCC[C@@H](N)C(=O)NCCCCCNCCCCCCCNC(=O)[C@H](CC(=O)O)NC(=O)Cc1ccc(O)cc1O
Result: 5.65

----------
Quick reference for pIC50 among some compounds
biological target: Glutamate receptor 1 (Rattus norvegicus, UniProt P19490); test: Inhibition of rat GluA1 receptor flip form expressed in Xenopus laevis oocyte assessed as glutamate-induced current at holding potentials from -80 to -40 mV by two electrode voltage clamp analysis
Sequence (P19490 whole entry): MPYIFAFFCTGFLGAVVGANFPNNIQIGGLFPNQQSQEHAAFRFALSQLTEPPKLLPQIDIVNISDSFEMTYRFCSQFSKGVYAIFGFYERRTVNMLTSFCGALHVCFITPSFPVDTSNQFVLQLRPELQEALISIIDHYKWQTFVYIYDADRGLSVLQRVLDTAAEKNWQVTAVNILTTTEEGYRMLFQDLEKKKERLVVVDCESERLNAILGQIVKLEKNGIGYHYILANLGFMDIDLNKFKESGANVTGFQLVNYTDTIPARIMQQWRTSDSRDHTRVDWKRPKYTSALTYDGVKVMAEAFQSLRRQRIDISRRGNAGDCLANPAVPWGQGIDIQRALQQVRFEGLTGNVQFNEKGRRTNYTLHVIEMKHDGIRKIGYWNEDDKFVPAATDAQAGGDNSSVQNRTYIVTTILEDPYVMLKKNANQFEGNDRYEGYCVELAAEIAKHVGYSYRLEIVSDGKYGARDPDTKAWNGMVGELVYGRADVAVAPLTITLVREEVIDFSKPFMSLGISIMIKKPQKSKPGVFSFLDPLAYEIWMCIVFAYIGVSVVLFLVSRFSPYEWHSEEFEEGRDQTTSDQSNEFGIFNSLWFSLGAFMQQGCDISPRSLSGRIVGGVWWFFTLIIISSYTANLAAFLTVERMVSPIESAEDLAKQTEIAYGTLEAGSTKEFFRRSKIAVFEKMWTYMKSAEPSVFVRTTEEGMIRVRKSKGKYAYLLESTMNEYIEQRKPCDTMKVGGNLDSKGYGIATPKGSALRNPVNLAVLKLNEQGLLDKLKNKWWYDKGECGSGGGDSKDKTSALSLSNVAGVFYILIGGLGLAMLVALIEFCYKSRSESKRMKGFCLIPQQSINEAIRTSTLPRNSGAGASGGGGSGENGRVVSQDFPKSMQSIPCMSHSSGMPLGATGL
Kindly note that pIC50 refers to -log10 of the concentration in mol/L and answer with the value alone.

Request: Name the reported pIC50 value associated with the compound NC(=O)C[C@H](NC(=O)Cc1ccc(O)cc1O)C(=O)NCCCCCCCNCCCCCNC(=O)[C@@H](N)CCCN=C(N)N
Result: 6.93

Request: What do you have for N=C(N)NCCC[C@H](N)C(=O)NCCCCCCCNCCCCCNC(=O)[C@H](CC(N)=O)NC(=O)Cc1ccc(O)cc1O ?
Result: 7.11

Request: What do you have for N=C(N)NCCC[C@H](N)C(=O)NCCCCCCCCNCCCCNC(=O)[C@H](CC(N)=O)NC(=O)Cc1ccc(O)cc1O ?
Result: 7.72

Request: What do you have for N=C(N)NCC[C@@H](N)C(=O)NCCCCCNCCCCCCCNC(=O)[C@H](CC(=O)O)NC(=O)Cc1ccc(O)cc1O ?
Result: 6.78
